Assay: Cytotoxicity against human HCCLM3 cells assessed as reduction in cell viability incubated for 72 hrs by Celltiter-Glo assay
Assay type: functional, cell-based
Conditions: HCCLM3, 72 h
pIC50: −log10 of the molar value.
parameter.measured: pIC50

Solved entries (count: 5):
smiles.string	pIC50
C=C1C(=O)C2=C3[C@H]1[C@H]1OC(=O)C(=C)[C@@H]1CC[C@]3(O)CC[C@]21C(=O)C[C@H]2C(=C)CC[C@H]3C(=C)C(=O)O[C@@H]3[C@H]21	< 5.00
C=C1C(=O)O[C@@H]2[C@@H]3[C@@H](C[C@@]4(O)[C@]3(O)CC[C@]43C(=O)C[C@H]4C(=C)CC[C@H]5C(=C)C(=O)O[C@@H]5[C@H]43)C(=C)CC[C@@H]12	< 5.00
C=C1C(=O)O[C@@H]2[C@@H]3C4=C(C(=O)[C@H]3C)[C@]3(CC[C@@]4(O)CC[C@@H]12)C(=O)C[C@H]1C(=C)CC[C@@H]2[C@H](OC(=O)[C@H]2C)[C@H]13	< 5.00
C=C1C(=O)O[C@@H]2[C@@H]3C4=C(C(=O)[C@H]3CO)[C@]3(CC[C@]4(O)CC[C@@H]12)C(=O)C[C@H]1C(=C)CC[C@H]2C(=C)C(=O)O[C@@H]2[C@H]13	< 5.00
C=C1C(=O)C2=C3[C@@H](CC[C@H]4C(=C)C(=O)O[C@@H]4[C@@H]13)CC[C@]21C(=O)C[C@H]2C(=C)CC[C@H]3C(=C)C(=O)O[C@@H]3[C@H]21	< 5.00

For record `C=C1C(=O)C2=C3[C@H]1[C@H]1OC(=O)C(=C)[C@@H]1CC[C@]3(O)CC[C@]21C(=O)[C@H](C[C@@H]2C(=O)C[C@H]3C(=C)CC[C@H]4C(=C)C(=O)O[C@@H]4[C@@H]23)[C@H]2C(=C)CC[C@H]3C(=C)C(=O)O[C@@H]3[C@H]21` the listed pIC50 is 5.08

meta.source: ChEMBL document CHEMBL4831526
